Molecular target: Q2/Q3 (KCNQ2/3) (Homo sapiens, UniProt O43525+O43526)
Construct: heterotetramer; equal mRNA amounts of both subunits in Xenopus laevis oocytes
Sequence (O43526 whole entry): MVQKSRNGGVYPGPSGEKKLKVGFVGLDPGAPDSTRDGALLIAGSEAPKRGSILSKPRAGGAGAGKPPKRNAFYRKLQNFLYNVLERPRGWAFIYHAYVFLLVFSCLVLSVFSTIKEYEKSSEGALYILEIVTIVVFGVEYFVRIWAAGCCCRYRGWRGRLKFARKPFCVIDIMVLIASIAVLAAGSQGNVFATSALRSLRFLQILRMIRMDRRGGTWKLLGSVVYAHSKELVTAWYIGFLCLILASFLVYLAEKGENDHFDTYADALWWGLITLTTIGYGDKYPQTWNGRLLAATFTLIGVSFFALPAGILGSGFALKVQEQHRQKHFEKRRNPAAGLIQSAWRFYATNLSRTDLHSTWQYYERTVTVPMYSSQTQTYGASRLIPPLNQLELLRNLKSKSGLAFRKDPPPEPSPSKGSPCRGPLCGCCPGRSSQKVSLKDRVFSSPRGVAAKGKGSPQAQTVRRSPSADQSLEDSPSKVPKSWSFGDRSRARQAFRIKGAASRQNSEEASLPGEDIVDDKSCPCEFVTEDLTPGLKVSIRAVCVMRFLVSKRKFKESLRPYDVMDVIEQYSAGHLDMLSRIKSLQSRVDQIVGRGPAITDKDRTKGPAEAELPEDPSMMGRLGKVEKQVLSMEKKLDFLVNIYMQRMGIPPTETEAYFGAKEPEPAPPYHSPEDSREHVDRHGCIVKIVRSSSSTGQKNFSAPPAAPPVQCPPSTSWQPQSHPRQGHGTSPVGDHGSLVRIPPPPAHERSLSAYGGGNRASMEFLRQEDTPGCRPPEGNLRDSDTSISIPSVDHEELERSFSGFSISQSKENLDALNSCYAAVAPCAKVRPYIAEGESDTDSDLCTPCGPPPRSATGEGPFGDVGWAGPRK
Sequence (O43525 whole entry): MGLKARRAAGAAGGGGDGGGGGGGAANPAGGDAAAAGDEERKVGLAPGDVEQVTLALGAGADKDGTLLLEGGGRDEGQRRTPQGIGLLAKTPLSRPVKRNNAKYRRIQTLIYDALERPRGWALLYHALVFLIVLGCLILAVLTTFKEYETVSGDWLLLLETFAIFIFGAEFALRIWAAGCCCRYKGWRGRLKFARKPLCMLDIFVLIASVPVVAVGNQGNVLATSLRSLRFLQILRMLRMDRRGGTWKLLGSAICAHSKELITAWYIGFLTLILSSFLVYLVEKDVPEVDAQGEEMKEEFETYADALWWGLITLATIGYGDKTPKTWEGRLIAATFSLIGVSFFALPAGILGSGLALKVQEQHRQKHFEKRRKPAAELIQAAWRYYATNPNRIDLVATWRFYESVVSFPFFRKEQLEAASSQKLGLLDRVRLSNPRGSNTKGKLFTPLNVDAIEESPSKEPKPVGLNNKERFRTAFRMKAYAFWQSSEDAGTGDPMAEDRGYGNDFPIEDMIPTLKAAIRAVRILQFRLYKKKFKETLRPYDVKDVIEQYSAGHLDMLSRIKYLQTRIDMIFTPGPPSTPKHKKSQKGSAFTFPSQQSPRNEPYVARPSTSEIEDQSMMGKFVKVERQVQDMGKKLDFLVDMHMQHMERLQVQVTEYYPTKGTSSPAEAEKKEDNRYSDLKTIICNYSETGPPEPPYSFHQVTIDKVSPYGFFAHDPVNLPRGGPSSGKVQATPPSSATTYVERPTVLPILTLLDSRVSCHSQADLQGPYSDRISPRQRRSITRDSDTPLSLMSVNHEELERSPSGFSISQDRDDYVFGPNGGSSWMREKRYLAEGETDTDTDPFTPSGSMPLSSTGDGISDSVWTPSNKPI
Assay: two-electrode voltage clamp, Xenopus oocytes; delta gmax on washout, hyperbola fit
Details: read-out: Phenylboronic Acid (PBA) / EC50
pEC50: −log10 of the molar value.
measure.name: pEC50

>>> readout_value("OB(O)c1ccccc1")
2.43
